Each recorded value in this set is attributed to ChEMBL document CHEMBL5365464.

Listed compounds paired with reported IC50
System: BaF3
protocol description: Antiproliferative activity against mouse BaF3 cells harbouring ETV6-TRKC G696A mutant incubated for 3 days by CCK8 method
conditions used: BaF3, 72 h
Numbers only here, please. The scale is nM.

C[C@@H]1CCc2ncc(F)cc2[C@H]2CCCN2c2ccn3ncc(c3n2)C(=O)N1 = 4.15

Give the reported IC50 for `C[C@H]1CNC(=O)c2cnn3ccc(nc23)N[C@H](C)c2cc(F)ccc2O1` (system: BaF3).
1.14

###

Tested on: BaF3
protocol description: Antiproliferative activity against mouse BaF3 cells harbouring TRKA-F589L fusion protein incubated for 3 days by CCK8 method
conditions used: BaF3, 72 h
Attribute: IC50
Give a bare numeral; the unit nM is implied.

Here's what some known entries look like.
Cc1c2cc(cc1C(=O)Nc1cc(CN3CCCN(C)CC3)cc(C(F)(F)F)c1)OCCCCCCCNC(=O)c1ccc3ncc(n3n1)C#C2 = 8.68
C[C@@H]1CCc2ncc(F)cc2[C@H]2CCCN2c2ccn3ncc(c3n2)C(=O)N1 = 31.5
Cc1c2cc(cc1C(=O)Nc1cc(CN3CCN(C)CC3)cc(C(C)C)c1)OCCCCCCCNC(=O)c1ccc3ncc(n3n1)C#C2 = 32.7
C[C@H]1CNC(=O)c2cnn3ccc(nc23)N[C@H](C)c2cc(F)ccc2O1 = 1.61

Data request, read-out IC50, for `Cc1c2cc(cc1C(=O)Nc1cc(CN3CCN(C)CC3)cc(C(C)(C)C)c1)OCCCCCCCNC(=O)c1ccc3ncc(n3n1)C#C2`
45.4

###

protocol description: Cmax in ICR mouse at 2.0 mg/kg, iv measured upto 24 hrs by LC-MS/MS analysis
Type: ADME, organism-based
Design: dose 2 mg/kg, time < 24 hrs, route iv
conditions used: in vivo
measurement kind: Cmax (ng/mL)
Unit ng/mL implied. Number only.

For `Cc1c2cc(cc1C(=O)Nc1cc(CN3CCN(C)CC3)cc(C3CC3)c1)OCCCCCCCNC(=O)c1ccc3ncc(n3n1)C#C2` , what is its reported Cmax?
626

###

protocol description: Cmax in ICR mouse at 10 mg/kg, po measured upto 24 hrs by LC-MS/MS analysis
Assay type: ADME, organism-based
Design: dose 10 mg/kg, time < 24 hrs, route po
conditions used: in vivo
measurement kind: Cmax
A bare number is not enough; add the unit after it.

For the molecule `Cc1c2cc(cc1C(=O)Nc1cc(CN3CCN(C)CC3)cc(C3CC3)c1)OCCCCCCCNC(=O)c1ccc3ncc(n3n1)C#C2` , what Cmax is on record?
95.2 ng/mL

###

// reported pIC50 for each item listed
Tested on: BaF3
protocol description: Antiproliferative activity against mouse BaF3 cells harbouring CD74-NTRK1 G595R mutant fusion protein incubated for 3 days by CCK8 method
Type: functional, cell-based
conditions used: BaF3, 72 h
Give only the number. pIC50 is defined as minus log10 of concentration in molar units.

Here's what some known entries look like.
C[C@@H]1CCc2ncc(F)cc2[C@H]2CCCN2c2ccn3ncc(c3n2)C(=O)N1 = 7.99
Cc1c2cc(cc1C(=O)Nc1cc(N3CCC(N4CCOCC4)CC3)cc(C(F)(F)F)c1)OCCCCCCCNC(=O)c1ccc3ncc(n3n1)C#C2 = 7.17
Cc1c2cc(cc1C(=O)Nc1cc(CN3CCCN(C)CC3)cc(C(F)(F)F)c1)OCCCCCCCNC(=O)c1ccc3ncc(n3n1)C#C2 = 7.31
Cc1cn(-c2cc(NC(=O)c3cc4cc(c3C)C#Cc3cnc5ccc(nn35)NCCN(C)C(=O)CCCCO4)cc(C(F)(F)F)c2)cn1 = 6.76
Cc1c2cc(cc1C(=O)Nc1cc(CN3CCN(C)CC3)cc(C(C)(C)C)c1)OCCCCCCCNC(=O)c1ccc3ncc(n3n1)C#C2 = 7.18

Would you kindly look at the next entry?
Query pIC50 on BaF3 for `Cc1c2cc(cc1C(=O)Nc1cc(CN3CCN(C)CC3)cc(C(C)C)c1)OCCCCCCCNC(=O)c1ccc3ncc(n3n1)C#C2`
7.37
